The following molecules are listed with their measured AC50 values.
Biological target: D(1A) dopamine receptor (Homo sapiens); note: assay procedure not described here
Sequence (P21728 whole entry): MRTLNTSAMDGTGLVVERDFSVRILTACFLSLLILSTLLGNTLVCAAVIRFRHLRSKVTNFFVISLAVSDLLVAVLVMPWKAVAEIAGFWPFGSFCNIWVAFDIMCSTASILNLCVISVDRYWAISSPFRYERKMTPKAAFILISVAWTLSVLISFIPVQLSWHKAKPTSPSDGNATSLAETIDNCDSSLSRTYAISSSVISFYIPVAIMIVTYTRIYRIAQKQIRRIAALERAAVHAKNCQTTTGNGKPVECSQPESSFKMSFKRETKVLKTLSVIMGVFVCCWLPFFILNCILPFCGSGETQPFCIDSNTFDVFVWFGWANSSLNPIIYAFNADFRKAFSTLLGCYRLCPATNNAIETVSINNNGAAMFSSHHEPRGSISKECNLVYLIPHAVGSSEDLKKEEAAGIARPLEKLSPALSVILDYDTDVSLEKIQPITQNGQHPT
Assay type: functional, cell-based

Worked examples follow.
molecule	AC50
O=C(CCCCCCC(=O)Nc1ccccc1)NO	> 30 µM
NC(=O)C[S+]([O-])C(c1ccccc1)c1ccccc1 (stereo not drawn)	> 10 µM
CC(C(O)c1ccc(O)cc1)N1CCC(Cc2ccccc2)CC1 (stereo not drawn)	> 30 µM

API: value(readout= AC50, system= D(1A) dopamine receptor (Homo sapiens), query= COc1c(C)c2c(c(O)c1C/C=C(\C)CCC(=O)OCCN1CCOCC1)C(=O)OC2 [MYCOPHENOLATE MOFETIL] ) > 30 µM

API: value(readout= AC50, system= D(1A) dopamine receptor (Homo sapiens), query= Oc1ncnc2[nH]ncc12 ) > 10 µM
